Ref: BindingDB's records for doi:10.1021/jm00039a024

# tested on: cGMP-specific 3',5'-cyclic phosphodiesterase, PDE5 (Sus scrofa)
# method description: Inhibitory activity against cGMP-phosphodiesterase from porcine aorta
result type: IC50
Answer by giving the amount and then stating its unit.

Solved entries (count: 5):
structure notation	tested on	result type	result
CCOC(=O)c1ccc2ncnc(NCc3ccc4c(c3)OCO4)c2c1	cGMP-specific 3',5'-cyclic phosphodiesterase, PDE5 (Sus scrofa)	IC50	0.62 µM
NC(=O)c1ccc2ncnc(NCc3ccc4c(c3)OCO4)c2c1	cGMP-specific 3',5'-cyclic phosphodiesterase, PDE5 (Sus scrofa)	IC50	0.77 µM
CCOc1ccc2ncnc(NCc3ccc4c(c3)OCO4)c2c1	cGMP-specific 3',5'-cyclic phosphodiesterase, PDE5 (Sus scrofa)	IC50	0.38 µM
COc1ccc2ncnc(NCc3ccc4c(c3)OCO4)c2c1OC	cGMP-specific 3',5'-cyclic phosphodiesterase, PDE5 (Sus scrofa)	IC50	0.73 µM
CS(=O)(=O)c1ccc2ncnc(NCc3ccc4c(c3)OCO4)c2c1	cGMP-specific 3',5'-cyclic phosphodiesterase, PDE5 (Sus scrofa)	IC50	0.81 µM

Prompt: Requested field: IC50. Item: CN(C)C(=O)c1ccc2ncnc(NCc3ccc4c(c3)OCO4)c2c1
Response: 2.3 µM

Prompt: Requested field: IC50. Item: COc1cc(OC)c2ncnc(NCc3ccc4c(c3)OCO4)c2c1
Response: 0.81 µM

Prompt: Requested field: IC50. Item: O=c1c2ccc(Cl)cc2ncn1Cc1ccc2c(c1)OCO2
Response: 8.7 µM

Prompt: Requested field: IC50. Item: COc1cc2ncnc(NCc3ccc4c(c3)OCO4)c2cc1SC
Response: 0.35 µM

Prompt: Requested field: IC50. Item: CSc1ccc2ncn(Cc3ccc4c(c3)OCO4)c(=O)c2c1
Response: 2.3 µM

Prompt: Requested field: IC50. Item: O=C(c1ccc2ncnc(NCc3ccc4c(c3)OCO4)c2c1)N1CCOCC1
Response: 2.7 µM
